Read-out: solute carrier (SLCO1B1), SLCO1B1 (gene 10599)
test-description: LTEA_HepaRG_SLCO1B1: Life Technologies and Expression Analysis (LTEA) Assay for solute carrier (SLCO1B1) using HepaRG (AID 2283530)
condition-label: mRNA level, 48 h; actives raise or lower the signal
Procedure: LTEA_HepaRG is a cell based, multiplexed-readout assay that uses HepaRG, a human liver cell line, with measurements taken at 48 hours after chemical dosing on a 96-well plate.LTEA_HepaRG_SLCO1B1 is one of 102 assay component(s) measured in the LTEA HepaRG cell culture assay. It is a marker of NR mediated transport.Data from the assay component LTEA_HepaRG_SLCO1B1 was analyzed into 1 endpoint. […]
Calls of active or inactive are those of the source. Rule for the calls: active = hit-call score of the fitted dose curve at least 0.9, where 1 is the maximum; inactive = score below 0.9.
Outcomes: true (1) = active, false (0) = inactive

CN(C)c1ccccc1 = false (0)
CC(C)(C)OOC(C)(C)CCC(C)(C)OOC(C)(C)C = false (0)
O=Cc1ccco1 = false (0)
CN(C)C(=O)Nc1ccc(Cl)cc1 = false (0)
Cc1ccc(N)cc1 = false (0)
C[N+](C)(C)CC1CO1 (stereo not given) = false (0)
Cc1ccc(N=C=O)cc1N=C=O = false (0)
c1ccc(C2CO2)cc1 (stereo not given) = false (0)
C1=Cc2cccc3cccc1c23 = false (0)
[O-][Cl+]O = false (0)
Nc1cc(Cl)cc(C(=O)O)c1Cl = false (0)
Nc1ccc(Cl)cc1N = true (1)
CCCSC(=O)N(CCC)CCC = false (0)
Cn1cc(-c2ccccc2)c(=O)c(-c2cccc(C(F)(F)F)c2)c1 = false (0)
CCCCCOC(=O)c1ccccc1C(=O)OCCCCC = false (0)
Cc1ccc(N)c(N)c1 = false (0)
N#CC(Br)Br = false (0)
Nc1ccc(Oc2ccc(N)cc2)cc1 = false (0)
CC(C)N(Cc1ccccc1)C(=O)C(C)(C)C = false (0)
c1ccc2c(c1)oc1ccccc12 = false (0)
N#CC(Br)(Br)C(N)=O = false (0)
COc1cc(C=O)cc2c1[C@H](COC(N)=O)[C@]1(OC(C)=O)ON2C[C@H]2[C@@H]1N2C(C)=O = true (1)
Clc1ccc(C(c2ccc(Cl)cc2)C(Cl)(Cl)Cl)cc1 = false (0)
CC(C)(C)OOC(=O)c1ccccc1 = false (0)
COP(=S)(OC)SCN1C(=O)c2ccccc2C1=O = false (0)
O=C1CCCO1 = false (0)
OCCOCCO = false (0)
CN(C)[C@@H]1C(=O)C(C(N)=O)=C(O)[C@@]2(O)C(=O)C3=C(O)c4c(O)cccc4[C@@](C)(O)[C@H]3C[C@@H]12 = false (0)
C[C@]12C=CC3=C4CCC(=O)C=C4CC[C@H]3[C@@H]1CC[C@@H]2O = true (1)
[Cl-].[Cl-].[Hg+2] = false (0)
CCC12COCN1COC2 = false (0)
CCC(C)c1ccc(O)cc1 (stereo not given) = false (0)
CCCCCCCCCCCCCN1CC(C)OC(C)C1 (stereo not given) = false (0)
O=C(N[C@H](c1ccccc1)[C@@H]1CN2CCC1CC2)c1c(Cl)ccc(C(F)(F)F)c1Cl = true (1)
Oc1ccc2ccc3cccc4ccc1c2c34 = false (0)
CCC[CH2][Sn]([Cl])([CH2]CCC)[CH2]CCC = true (1)
CC(C)(O)c1cnn2c(-c3ccc(F)c(-c4c(F)cccc4C#N)c3)cnc2n1 = false (0)
Nc1ccc(Cc2ccc(N)cc2)cc1 = false (0)
CC(O)CCO (stereo not given) = false (0)
CCCCCCCCn1sccc1=O = true (1)
CNC(=O)Oc1cccc2c1OC(C)(C)C2 = false (0)
O=C(O)C1C2CCC(O2)C1C(=O)O (stereo not given) = true (1)
Nc1ccc(N=Nc2ccccc2)cc1 = true (1)
CN(C)c1ccc(C(=O)c2ccc(N(C)C)cc2)cc1 = false (0)
Cc1cccc(N)c1N = true (1)
